These data points were gathered from ChEMBL document CHEMBL3797178.

test system: Klebsiella pneumoniae; test: Antibacterial activity against Klebsiella pneumoniae 14-2 after 18 to 24 hrs by CLSI M100-S11 method; assay type: functional
QUANTITY_MEASURED: MIC

Sample answers from the record:
INSERT INTO assay_data (compound, measurement_target, quantity_measured, recorded_result) VALUES
  ('NC[C@@H]1/C(=N/OCc2ccccc2)CN1c1nc2c(cc1F)c(=O)c(C(=O)O)cn2-c1nc(N)c(F)cc1F', 'Klebsiella pneumoniae', 'MIC', '> 128 mg/L'),
  ('NCC1CN(c2nc3c(cc2F)c(=O)c(C(=O)O)cn3-c2nc(N)c(F)cc2F)C/C1=N\OCc1ccccc1 (centres undefined)', 'Klebsiella pneumoniae', 'MIC', '128 mg/L'),
  ('Nc1nc(-n2cc(C(=O)O)c(=O)c3cc(F)c(N4CC/C(=N\OCc5ccccc5)C(O)C4)nc32)c(F)cc1F (centres undefined)', 'Klebsiella pneumoniae', 'MIC', '> 128 mg/L');

Next compound, MIC to be filled in.
compound "C[C@H]1COc2c(N3CCN(C)CC3)c(F)cc3c(=O)c(C(=O)O)cn1c23.C[C@H]1COc2c(N3CCN(C)CC3)c(F)cc3c(=O)c(C(=O)O)cn1c23.O" , MIC observed: 8 mg/L

====

system: Staphylococcus aureus; experiment: Antibacterial activity against Staphylococcus aureus CMCC 26003 after 18 to 24 hrs by CLSI M100-S11 method; assay type: functional
Note to self: use 1 only for MIC readings below 2 µg/mL; a reading exactly at 2 µg/mL still gets 0.

Use the examples below as a reference point.
INSERT INTO assay_data (molecule, class_assignment) VALUES
  ('CO/N=C1\CCN(c2nc3c(cc2F)c(=O)c(C(=O)O)cn3-c2nc(N)c(F)cc2F)CC1N (stereo not drawn)', 0),
  ('CCO/N=C1\CN(c2nc3c(cc2F)c(=O)c(C(=O)O)cn3-c2nc(N)c(F)cc2F)CC1CN (stereo not drawn)', 1),
  ('NCC1CN(c2nc3c(cc2F)c(=O)c(C(=O)O)cn3-c2nc(N)c(F)cc2F)C/C1=N\OCc1ccccc1 (stereo not drawn)', 1),
  ('CCO/N=C1\CN(c2nc3c(cc2F)c(=O)c(C(=O)O)cn3-c2nc(N)c(F)cc2F)[C@@H]1CN', 0),
  ('CO/N=C1\CCN(c2c(F)cc3c(=O)c(C(=O)O)cn(-c4nc(N)c(F)cc4F)c3c2Cl)CC1N (stereo not drawn)', 1);

Next, consider the following molecule.
Exercise: Threshold test, MIC < 2 µg/mL: "C[C@H]1COc2c(N3CCN(C)CC3)c(F)cc3c(=O)c(C(=O)O)cn1c23.C[C@H]1COc2c(N3CCN(C)CC3)c(F)cc3c(=O)c(C(=O)O)cn1c23.O"
Solution: 1

====

Attribute: MIC
system: Staphylococcus aureus; assay: Antibacterial activity against methicillin-resistant Staphylococcus aureus 14-5 after 18 to 24 hrs by CLSI M100-S11 method; format: functional

Would you please look over these solved cases?
INSERT INTO results (compound, measurement_target, quantity_measured, recorded_result) VALUES
  ('C[C@H]1COc2c(N3CCN(C)CC3)c(F)cc3c(=O)c(C(=O)O)cn1c23.C[C@H]1COc2c(N3CCN(C)CC3)c(F)cc3c(=O)c(C(=O)O)cn1c23.O [LEVOFLOXACIN]', 'Staphylococcus aureus', 'MIC', '8 µg/mL'),
  ('NCC1CN(c2nc3c(cc2F)c(=O)c(C(=O)O)cn3-c2nc(N)c(F)cc2F)C/C1=N\OCc1ccccc1 (stereo not drawn)', 'Staphylococcus aureus', 'MIC', '128 µg/mL'),
  ('Nc1nc(-n2cc(C(=O)O)c(=O)c3cc(F)c(N4CC/C(=N\OCc5ccccc5)C(O)C4)nc32)c(F)cc1F (stereo not drawn)', 'Staphylococcus aureus', 'MIC', '> 128 µg/mL'),
  ('CCO/N=C1\CN(c2nc3c(cc2F)c(=O)c(C(=O)O)cn3-c2nc(N)c(F)cc2F)[C@H]1CN', 'Staphylococcus aureus', 'MIC', '> 128 µg/mL'),
  ('CO/N=C1\CCN(c2c(F)cc3c(=O)c(C(=O)O)cn(-c4nc(N)c(F)cc4F)c3c2Cl)CC1N (stereo not drawn)', 'Staphylococcus aureus', 'MIC', '> 128 µg/mL'),
  ('CC1(CN)CN(c2nc3c(cc2F)c(=O)c(C(=O)O)cn3-c2nc(N)c(F)cc2F)C/C1=N\OCc1ccccc1 (stereo not drawn)', 'Staphylococcus aureus', 'MIC', '64 µg/mL');

Entry CO/N=C1\CCN(c2nc3c(cc2F)c(=O)c(C(=O)O)cn3-c2nc(N)c(F)cc2F)CC1N (stereo not drawn) — recorded MIC = > 128 µg/mL

The reported value for "NC[C@H]1/C(=N/OCc2ccccc2)CN1c1nc2c(cc1F)c(=O)c(C(=O)O)cn2-c1nc(N)c(F)cc1F" in terms of MIC is > 128 µg/mL

====

Documented MIC across a set of compounds
test system: Staphylococcus aureus; test: Antibacterial activity against methicillin-resistant Staphylococcus aureus 14-5 after 18 to 24 hrs by CLSI M100-S11 method; type: functional
Write down the numeric answer in µg/mL and omit the unit.

Worked cases, answers included:
INSERT INTO assay_data (compound, units, recorded_result) VALUES
  ('CO/N=C1\CN(c2nc3c(cc2F)c(=O)c(C(=O)O)cn3-c2nc(N)c(F)cc2F)CC1CN (centres undefined)', 'µg/mL', 64),
  ('CCO/N=C1\CN(c2nc3c(cc2F)c(=O)c(C(=O)O)cn3-c2nc(N)c(F)cc2F)CC1CN (centres undefined)', 'µg/mL', 64),
  ('CO/N=C1\CCN(c2nc3c(cc2F)c(=O)c(C(=O)O)cn3-c2nc(N)c(F)cc2F)CC1O (centres undefined)', 'µg/mL', 128);

Now look at this entry.
Fill in: Staphylococcus aureus MIC for CO/N=C1\CN(c2c(F)cc3c(=O)c(C(=O)O)cn(-c4nc(N)c(F)cc4F)c3c2Cl)CC1CN (centres undefined) = 128

====

List of MIC values.
tested on: Pseudomonas aeruginosa; assay: Antibacterial activity against Pseudomonas aeruginosa 14-15 after 18 to 24 hrs by CLSI M100-S11 method; assay type: functional
Field: numeric (mg/L). Do not append units.

Simply: NCC1CN(c2nc3c(cc2F)c(=O)c(C(=O)O)cn3-c2nc(N)c(F)cc2F)C/C1=N\OCc1ccccc1 (stereo not drawn) , Pseudomonas aeruginosa, MIC = 32

Sample CO/N=C1\CCN(c2nc3c(cc2F)c(=O)c(C(=O)O)cn3-c2nc(N)c(F)cc2F)CC1O (stereo not drawn) , system: Pseudomonas aeruginosa. Its MIC is 128

Tested on Pseudomonas aeruginosa: CO/N=C1\CCN(c2nc3c(cc2F)c(=O)c(C(=O)O)cn3-c2nc(N)c(F)cc2F)CC1N (stereo not drawn) . Observed MIC: 128

CO/N=C1\CCN(c2c(F)cc3c(=O)c(C(=O)O)cn(-c4nc(N)c(F)cc4F)c3c2Cl)CC1N (stereo not drawn) tested on Pseudomonas aeruginosa gave MIC: 64

Noted MIC for CO/N=C1\CN(c2c(F)cc3c(=O)c(C(=O)O)cn(-c4nc(N)c(F)cc4F)c3c2Cl)CC1CN (stereo not drawn) , tested on Pseudomonas aeruginosa: 8

Sample CO/N=C1\CN(c2nc3c(cc2F)c(=O)c(C(=O)O)cn3-c2nc(N)c(F)cc2F)CC1CN (stereo not drawn) , system: Pseudomonas aeruginosa. Its MIC is 32

Value sought: MIC, system Pseudomonas aeruginosa, item "CO/N=C1\CN(c2nc3c(cc2F)c(=O)c(C(=O)O)cn3-c2nc(N)c(F)cc2F)[C@@H]1CN" . Result: 64

Observed MIC on Pseudomonas aeruginosa, entry Nc1nc(-n2cc(C(=O)O)c(=O)c3cc(F)c(N4CC/C(=N\OCc5ccccc5)C(N)C4)nc32)c(F)cc1F (stereo not drawn) , equals 128

====

system: Escherichia coli; test: Antibacterial activity against extended-spectrum beta-lactamase-producing Escherichia coli 14-2 after 18 to 24 hrs by CLSI M100-S11 method; assay type: functional
QUANTITY_MEASURED: MIC

Solved entries:
INSERT INTO measurements (compound, recorded_result) VALUES
  ('Nc1nc(-n2cc(C(=O)O)c(=O)c3cc(F)c(N4CC/C(=N\OCc5ccccc5)C(N)C4)nc32)c(F)cc1F (configuration not stated)', '> 128 µg/mL'),
  ('CO/N=C1\CN(c2nc3c(cc2F)c(=O)c(C(=O)O)cn3-c2nc(N)c(F)cc2F)[C@H]1CN', '> 128 µg/mL'),
  ('CO/N=C1\CN(c2nc3c(cc2F)c(=O)c(C(=O)O)cn3-c2nc(N)c(F)cc2F)CC1CN (configuration not stated)', '> 128 µg/mL'),
  ('NC[C@H]1/C(=N/OCc2ccccc2)CN1c1nc2c(cc1F)c(=O)c(C(=O)O)cn2-c1nc(N)c(F)cc1F', '> 128 µg/mL'),
  ('CO/N=C1\CN(c2c(F)cc3c(=O)c(C(=O)O)cn(-c4nc(N)c(F)cc4F)c3c2Cl)CC1CN (configuration not stated)', '64 µg/mL');

// sample CO/N=C1\CCN(c2c(F)cc3c(=O)c(C(=O)O)cn(-c4nc(N)c(F)cc4F)c3c2Cl)CC1N (configuration not stated) , its MIC was > 128 µg/mL

Entry under test: CCO/N=C1\CN(c2nc3c(cc2F)c(=O)c(C(=O)O)cn3-c2nc(N)c(F)cc2F)CC1CN (configuration not stated) . Its MIC was 128 µg/mL

The compound "CO/N=C1\CN(c2nc3c(cc2F)c(=O)c(C(=O)O)cn3-c2nc(N)c(F)cc2F)[C@@H]1CN" showed MIC equal to > 128 µg/mL

Memo: "CCO/N=C1\CN(c2nc3c(cc2F)c(=O)c(C(=O)O)cn3-c2nc(N)c(F)cc2F)[C@@H]1CN" , reported MIC: > 128 µg/mL
